- Measured Target: Organic anion transporter 3 (OAT3) (Rattus norvegicus, UniProt Q9R1U7)
- Sequence (Q9R1U7 whole entry): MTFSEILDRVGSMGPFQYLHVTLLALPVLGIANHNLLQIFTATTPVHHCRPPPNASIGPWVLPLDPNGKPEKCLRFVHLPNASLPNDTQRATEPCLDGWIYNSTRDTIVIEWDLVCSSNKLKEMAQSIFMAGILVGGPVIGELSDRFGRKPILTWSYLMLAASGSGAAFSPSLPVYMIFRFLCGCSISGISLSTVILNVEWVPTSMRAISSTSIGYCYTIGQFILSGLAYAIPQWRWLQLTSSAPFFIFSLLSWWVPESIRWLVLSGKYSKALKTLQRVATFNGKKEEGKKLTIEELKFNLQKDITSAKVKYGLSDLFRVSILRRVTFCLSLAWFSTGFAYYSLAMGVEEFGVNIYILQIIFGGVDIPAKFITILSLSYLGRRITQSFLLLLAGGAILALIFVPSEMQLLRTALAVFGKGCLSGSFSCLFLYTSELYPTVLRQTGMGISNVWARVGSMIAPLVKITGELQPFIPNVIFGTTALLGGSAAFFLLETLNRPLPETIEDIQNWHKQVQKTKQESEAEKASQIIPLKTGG
- Assay Details: TP_TRANSPORTER: inhibition of Indoxyl sulfate uptake (indoxyl sulfate: 2 uM, 4-Hydroxybenzoic acid: 1000 uM) in Xenopus laevis oocytes
- Format: functional, cell-based, Oocyte
- Design: scale not given: the % may be the effect or the level left
- Applied Conditions: probe indoxyl sulfate (2 uM), read-out: Activity
Parameter Measured: activity at 1000 µM (%)
Please reply with the bare figure in % and do not write the unit itself.

So the reported activity at 1000 µM for O=C(O)c1ccc(O)cc1 [PARABEN] , on Organic anion transporter 3 (OAT3) (Rattus norvegicus, UniProt Q9R1U7), turned out to be 22.1
